# method-description: Pharmacokinetic study in mice
# Assay type: in vivo
# measurement-context: mouse, iv; male mice, i.v. (2 mg/kg), plasma; read-out: AUC0-t
measured-parameter: AUC(0-t) (ng·h/mL)
Report as a plain number; the unit ng·h/mL is understood.

// known answers, use as guide
molecule	AUC(0-t) / ng·h/mL
Cn1c(=O)n(C2CCC(=O)NC2=O)c2cccc(N3CCN(C(=O)CN4CCC5(CC4)Cc4cc(NC(=O)c6cnn7cccnc67)c(N6CCC(CO)CC6)cc4O5)CC3)c21 (centres unmarked)	7880
Cc1cnc2c(C(=O)Nc3cc4c(cc3N3CCC(CO)CC3)OC3(CCN(C[C@H]5CC[C@H](OCC#Cc6cccc7c6n(C)c(=O)n7C6CCC(=O)NC6=O)CC5)CC3)C4)cnn2c1 (some centres unmarked)	8730
Cn1c(=O)n(C2CCC(=O)NC2=O)c2cccc(C#CCO[C@H]3CC[C@@H](CN4CCC5(CC4)Cc4cc(NC(=O)c6cnn7cccnc67)c(N6CCC(CO)CC6)cc4O5)CC3)c21 (relative stereo)	6190
Cn1nc(N2CCC(=O)NC2=O)c2cc(F)c(N3CCC(O)(CC(=O)N4CCC5(CC4)Cc4cc(NC(=O)c6cnn7cccnc67)c(N6CCC(CO)CC6)cc4O5)CC3)cc21	12900

Find the recorded AUC(0-t) belonging to Cn1c(=O)n(C2CCC(=O)NC2=O)c2cccc(N3CCN(CCN4CCC5(CC4)Cc4cc(NC(=O)c6cnn7cccnc67)c(N6CCC(CO)CC6)cc4O5)CC3)c21 (centres unmarked) and report it.
4570

====

The following compounds are listed with their measured AUC(0-t) values.
# method-description: Pharmacokinetic study in mice
# Type: in vivo
# measurement-context: mouse, iv; male mice, i.v. (2 mg/kg), plasma; read-out: AUC0-t
Report as a plain number; the unit ng·h/mL is understood.

// known answers, use as guide
compound	measured-parameter	reported
Cn1c(=O)n(C2CCC(=O)NC2=O)c2cccc(C#CCO[C@H]3CC[C@H](CN4CCC5(CC4)Cc4cc(NC(=O)c6cnn7cccnc67)c(N6CCC(C(C)(C)O)CC6)cc4O5)CC3)c21 (stereo partly shown)	AUC(0-t)	5120
Cn1c(=O)n(C2CCC(=O)NC2=O)c2cccc(CN3CCC(CCN4CCC5(CC4)Oc4cc(NC(=O)c6cnn7cccnc67)c(N6CCC(CO)CC6)cc4O5)CC3)c21 (stereo not shown)	AUC(0-t)	14400
Cn1c(=O)n(C2CCC(=O)NC2=O)c2cccc(N3CCC(CN4CCC5(CC4)Cc4cc(NC(=O)c6cnn7cccnc67)c(N6CCC(CO)CC6)cc4O5)CC3)c21 (stereo not shown)	AUC(0-t)	32700

Continue with the next compound.
Find the recorded AUC(0-t) belonging to Cn1c(=O)n(C2CCC(=O)NC2=O)c2cccc(C#CCO[C@H]3CC[C@H](CN4CCC5(CC4)Cc4cc(NC(=O)c6cnn7cc(Cl)cnc67)c(N6CCC(CO)CC6)cc4O5)CC3)c21 (stereo partly shown) and report it.
12100

====

# assayed-target: IRAK4 protein (Homo sapiens, UniProt Q9NWZ3)
# Sequence (Q9NWZ3 whole entry): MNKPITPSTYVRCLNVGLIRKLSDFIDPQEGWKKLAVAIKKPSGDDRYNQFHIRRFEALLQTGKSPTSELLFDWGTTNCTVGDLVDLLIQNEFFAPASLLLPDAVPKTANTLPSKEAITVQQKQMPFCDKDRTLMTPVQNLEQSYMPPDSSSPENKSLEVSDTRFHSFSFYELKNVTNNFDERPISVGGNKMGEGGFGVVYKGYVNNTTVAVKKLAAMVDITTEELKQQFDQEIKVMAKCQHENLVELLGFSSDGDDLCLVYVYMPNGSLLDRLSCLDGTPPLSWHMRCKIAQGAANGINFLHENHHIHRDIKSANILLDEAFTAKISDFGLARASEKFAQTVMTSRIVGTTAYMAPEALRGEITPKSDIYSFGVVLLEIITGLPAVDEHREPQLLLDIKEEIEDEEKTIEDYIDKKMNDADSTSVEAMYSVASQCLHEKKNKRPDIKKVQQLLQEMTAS
# method-description: IRAK4 Degradation Assay in THP-1 Cells (Western Blot)
# Assay type: cell-based
# Parameters: endogenous in cells; host or cells: THP-1 cells
# measurement-context: THP-1 cells, 24 hours, 0.0128 to 1000 nM, IRAK4 protein level by Western Blot; read-out: DC50
# Procedure: In a 6-well cell culture plate, an appropriate number of THP-1 cells were seeded. The plate was placed in a 5% CO2 incubator at 37°C for overnight culture. Then, the test compound's dimethyl sulfoxide solution was added, with the final concentration ranging from 0.0128 to 1000 nM. After continuous culture for 24 hours, the culture medium was removed, and the cells were collected in a 1.5 mL centrifuge tube. […] The supernatant was taken, and the level of IRAK4 protein was detected by Western Blot.
So basically: is DC50 under 2 nM? Then Satisfied. Not under? Then Not satisfied.

Please determine if Cn1c(=O)n(C2CCC(=O)NC2=O)c2cccc(C#CCOC3CCN(CCN4CCC5(CC4)Oc4cc(NC(=O)c6coc7cccnc67)c(N6CCC(CO)CC6)cc4O5)CC3)c21 (centres unmarked) [Compound 29] is below 2 nM in terms of DC50.
Not satisfied
